Reference source: patent US20210186970A1

Task for the reader: assign each of the following compounds its reported IC50.
# Assayed target: UniProtKB P15381
# Sequence (P15381 whole entry): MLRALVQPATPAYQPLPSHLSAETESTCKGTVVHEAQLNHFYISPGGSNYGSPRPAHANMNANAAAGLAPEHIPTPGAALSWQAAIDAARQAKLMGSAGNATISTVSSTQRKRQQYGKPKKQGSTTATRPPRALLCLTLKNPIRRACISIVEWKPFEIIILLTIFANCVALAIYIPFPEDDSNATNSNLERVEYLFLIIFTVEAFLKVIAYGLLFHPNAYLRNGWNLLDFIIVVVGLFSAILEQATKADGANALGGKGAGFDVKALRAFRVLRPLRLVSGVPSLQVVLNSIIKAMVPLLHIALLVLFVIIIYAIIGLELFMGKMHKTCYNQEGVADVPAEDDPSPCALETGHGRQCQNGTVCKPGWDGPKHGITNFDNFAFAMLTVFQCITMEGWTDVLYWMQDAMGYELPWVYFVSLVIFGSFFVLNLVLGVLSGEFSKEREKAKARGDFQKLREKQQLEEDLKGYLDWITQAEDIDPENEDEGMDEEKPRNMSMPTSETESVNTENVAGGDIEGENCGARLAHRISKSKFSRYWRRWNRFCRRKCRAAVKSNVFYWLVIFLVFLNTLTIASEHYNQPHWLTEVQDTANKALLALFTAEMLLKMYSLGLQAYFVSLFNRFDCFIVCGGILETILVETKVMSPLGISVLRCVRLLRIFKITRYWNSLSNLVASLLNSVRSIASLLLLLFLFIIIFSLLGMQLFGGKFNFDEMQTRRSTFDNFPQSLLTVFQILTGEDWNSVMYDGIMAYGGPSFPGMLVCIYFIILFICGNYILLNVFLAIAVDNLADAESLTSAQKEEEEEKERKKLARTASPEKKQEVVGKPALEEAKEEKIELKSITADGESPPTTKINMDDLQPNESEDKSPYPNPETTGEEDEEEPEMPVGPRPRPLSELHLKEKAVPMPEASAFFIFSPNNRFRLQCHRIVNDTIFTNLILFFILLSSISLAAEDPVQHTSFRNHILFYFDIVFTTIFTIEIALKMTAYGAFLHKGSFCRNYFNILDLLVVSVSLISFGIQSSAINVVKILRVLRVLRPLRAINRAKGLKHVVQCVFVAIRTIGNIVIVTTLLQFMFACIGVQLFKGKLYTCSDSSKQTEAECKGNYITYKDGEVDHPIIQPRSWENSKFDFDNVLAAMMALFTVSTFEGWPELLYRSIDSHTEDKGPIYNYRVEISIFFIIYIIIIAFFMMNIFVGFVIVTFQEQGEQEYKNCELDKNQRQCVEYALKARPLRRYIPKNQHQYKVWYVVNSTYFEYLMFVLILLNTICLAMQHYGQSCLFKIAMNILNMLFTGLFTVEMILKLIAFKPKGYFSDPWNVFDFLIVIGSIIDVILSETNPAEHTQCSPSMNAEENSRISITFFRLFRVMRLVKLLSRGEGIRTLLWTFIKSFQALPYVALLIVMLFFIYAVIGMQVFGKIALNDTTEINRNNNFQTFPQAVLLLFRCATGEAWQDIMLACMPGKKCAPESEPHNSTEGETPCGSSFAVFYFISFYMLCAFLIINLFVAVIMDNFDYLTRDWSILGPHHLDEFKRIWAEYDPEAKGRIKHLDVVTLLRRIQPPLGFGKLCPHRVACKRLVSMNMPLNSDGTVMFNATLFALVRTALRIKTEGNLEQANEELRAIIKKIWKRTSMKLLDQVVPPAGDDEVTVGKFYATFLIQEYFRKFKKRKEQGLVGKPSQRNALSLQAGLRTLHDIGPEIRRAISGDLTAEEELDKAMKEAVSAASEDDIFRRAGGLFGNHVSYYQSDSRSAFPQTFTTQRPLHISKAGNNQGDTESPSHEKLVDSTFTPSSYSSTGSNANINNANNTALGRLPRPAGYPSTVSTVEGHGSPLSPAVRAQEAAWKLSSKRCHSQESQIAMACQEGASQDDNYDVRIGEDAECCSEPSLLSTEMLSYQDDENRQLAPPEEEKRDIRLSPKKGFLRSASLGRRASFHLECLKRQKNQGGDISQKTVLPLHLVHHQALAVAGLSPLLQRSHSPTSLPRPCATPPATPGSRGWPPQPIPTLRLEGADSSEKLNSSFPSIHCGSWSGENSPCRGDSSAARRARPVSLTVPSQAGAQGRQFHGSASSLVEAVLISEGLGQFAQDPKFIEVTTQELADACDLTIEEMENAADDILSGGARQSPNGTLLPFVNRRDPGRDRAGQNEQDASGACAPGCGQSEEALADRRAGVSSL
# Sequence (P54284 whole entry partner): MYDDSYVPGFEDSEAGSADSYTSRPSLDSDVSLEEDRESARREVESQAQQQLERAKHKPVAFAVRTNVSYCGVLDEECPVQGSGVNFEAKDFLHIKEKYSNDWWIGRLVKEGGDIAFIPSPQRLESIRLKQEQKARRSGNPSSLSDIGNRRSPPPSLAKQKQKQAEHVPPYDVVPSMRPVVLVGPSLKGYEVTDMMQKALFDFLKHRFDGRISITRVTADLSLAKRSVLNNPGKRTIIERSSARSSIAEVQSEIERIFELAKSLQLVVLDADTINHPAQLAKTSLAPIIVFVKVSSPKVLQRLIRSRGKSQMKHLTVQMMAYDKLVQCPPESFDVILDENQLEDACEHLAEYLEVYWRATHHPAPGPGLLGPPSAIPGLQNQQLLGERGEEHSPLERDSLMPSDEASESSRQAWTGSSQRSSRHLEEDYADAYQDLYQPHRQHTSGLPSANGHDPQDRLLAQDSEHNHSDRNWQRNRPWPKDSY
# Sequence (P54289 25-956 partner limits assumed): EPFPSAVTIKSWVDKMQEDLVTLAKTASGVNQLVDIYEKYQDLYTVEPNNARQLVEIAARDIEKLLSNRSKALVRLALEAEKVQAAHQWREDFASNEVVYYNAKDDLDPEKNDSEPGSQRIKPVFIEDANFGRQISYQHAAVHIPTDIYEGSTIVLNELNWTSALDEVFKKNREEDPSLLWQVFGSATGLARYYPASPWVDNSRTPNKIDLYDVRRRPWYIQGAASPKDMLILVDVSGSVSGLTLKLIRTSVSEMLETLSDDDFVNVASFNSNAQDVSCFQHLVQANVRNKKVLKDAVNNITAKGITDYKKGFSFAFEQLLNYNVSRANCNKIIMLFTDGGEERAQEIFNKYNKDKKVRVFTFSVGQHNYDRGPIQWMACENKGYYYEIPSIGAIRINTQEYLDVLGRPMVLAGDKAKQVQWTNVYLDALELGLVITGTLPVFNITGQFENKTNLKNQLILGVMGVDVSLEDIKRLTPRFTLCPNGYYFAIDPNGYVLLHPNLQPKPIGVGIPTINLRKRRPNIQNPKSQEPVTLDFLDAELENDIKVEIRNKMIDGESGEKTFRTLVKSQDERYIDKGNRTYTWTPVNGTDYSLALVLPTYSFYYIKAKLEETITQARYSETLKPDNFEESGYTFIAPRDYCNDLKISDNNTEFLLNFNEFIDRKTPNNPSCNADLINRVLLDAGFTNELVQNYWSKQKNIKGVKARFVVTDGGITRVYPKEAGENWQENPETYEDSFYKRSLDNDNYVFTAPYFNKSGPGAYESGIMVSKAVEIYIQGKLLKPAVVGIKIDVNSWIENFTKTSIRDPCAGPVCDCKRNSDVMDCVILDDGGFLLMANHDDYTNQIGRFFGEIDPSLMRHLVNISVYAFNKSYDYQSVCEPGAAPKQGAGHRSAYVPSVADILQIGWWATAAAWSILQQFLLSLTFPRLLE
# Sequence (P54289 957-1103 partner limits assumed): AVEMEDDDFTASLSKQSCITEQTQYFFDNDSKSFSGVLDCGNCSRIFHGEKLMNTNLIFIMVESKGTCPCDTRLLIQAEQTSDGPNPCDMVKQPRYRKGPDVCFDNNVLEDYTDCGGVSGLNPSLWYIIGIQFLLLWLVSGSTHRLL
# Protocol description: FLIPR Fluo-8 calcium assay, Cav1.2 channel inhibition in HEK293 cells
# Measurement setup: IC50 (μM) Cav1.2, third library; FLIPR, HEK293; value (±SD)
# number only, unit µM dropped from output

What IC50 value was documented for this compound, O=C1CC(=O)N(c2cccc(F)c2)C(=O)N1CCc1cccc(Cl)c1 ?
9.7

What IC50 value was documented for this compound, O=C1CC(=O)N(CC2CCCCC2)C(=O)N1CCc1ccc(Cl)cc1 ?
46.8

What IC50 value was documented for this compound, Cc1cccc(CCN2C(=O)CC(=O)N(C3CCCCCC3)C2=O)c1 ?
30.7

What IC50 value was documented for this compound, Cc1ccc(CCN2C(=O)CC(=O)N(C3CCCCCC3)C2=O)cc1 ?
14.9

What IC50 value was documented for this compound, O=C1CC(=O)N(C23CC4CC(CC(C4)C2)C3)C(=O)N1CCc1cccc(Cl)c1 ?
1.9

What IC50 value was documented for this compound, CC(CN1C(=O)CC(=O)N(C2CCCC2)C1=O)c1ccccc1 (racemic) ?
16.9

What IC50 value was documented for this compound, Cc1ccc(CCN2C(=O)CC(=O)N(C3CCCC3)C2=O)cc1 ?
35.8

What IC50 value was documented for this compound, CC(C)(C)N1C(=O)CC(=O)N(CCc2cccc(C(F)(F)F)c2)C1=O ?
6.1
